So I've got a bunch of compounds here, and I need their CC50 values.
# PROCEDURE SUMMARY: Cytotoxicity in human PC3M cells assessed as inhibition of cell proliferation after 3 days by MTT assay
# Type: functional
# MEASUREMENT PARAMETERS: PC-3M, 72 h
A complete answer gives the number followed by the unit.

[ask] Give the measured CC50 of COc1c(CC=C(C)C)cc([C@H]2CC(=O)c3ccc(O)cc3O2)cc1CC=C(C)C .
[reply] 46 µM

[ask] How about COc1c(CC=C(C)C)cc([C@@H]2CC(=O)c3ccc(O)cc3O2)cc1CC=C(C)C ?
[reply] 12 µM

[ask] How about CC(C)=CCc1cc([C@H]2CC(=O)c3ccc(O)cc3O2)cc2c1OC(C)(C)C=C2 ?
[reply] 42 µM

[ask] How about COc1c(CC=C(C)C)cc(C2CC(=O)c3ccc(O)cc3O2)cc1CC=C(C)C (racemic) ?
[reply] 33 µM

[ask] How about CC(C)=CCc1cc(C2CC(=O)c3ccc(O)cc3O2)cc2c1OC(C)(C)C=C2 (racemic) ?
[reply] 57 µM
